- System: Aspergillus niger
- TEST PROTOCOL: Antimicrobial activity against Aspergillus niger ATCC 9029 by serial plate dilution method
- Assay type: functional
ASSAY READOUT: MIC (µM)

(1) Cc1nn(-c2nc3ccc(Cl)cc3s2)c(C)c1/N=N/c1ccc(F)cc1
(2) Cc1ccc(/N=N/c2c(C)nn(-c3nc4ccc(Cl)cc4s3)c2C)cc1
(3) COc1ccc(/N=N/c2c(C)nn(-c3nc4ccc(Cl)cc4s3)c2C)cc1
Quick favor: sort the molecules up above by MIC, largest first. Enter labels, ranked according to the request.
3, 2, 1

* * *

- System: Escherichia coli
- TEST PROTOCOL: Antimicrobial activity against Escherichia coli ATCC 25922 by serial plate dilution method
- Assay type: functional
ASSAY READOUT: MIC (µM)

Examples from the recorded data:
{"columns": ["SMI", "ASSAY READOUT", "UNIT TEXT", "TEST VALUE"],
 "data": [
  ["Cc1nn(-c2nc3ccc(Cl)cc3s2)c(C)c1/N=N/c1ccc(Cl)cc1", "MIC", "µM", 125],
  ["Cc1nn(-c2nc3ccc(Cl)cc3s2)c(C)c1/N=N/c1ccccc1Cl", "MIC", "µM", 249],
  ["CC1=NN(c2nc3ccc(Cl)cc3s2)C(=O)/C1=N/Nc1ccccc1C(=O)O", "MIC", "µM", 484],
  ["COc1ccc(/N=N/c2c(C)nn(-c3nc4ccc(Cl)cc4s3)c2C)cc1", "MIC", "µM", 252],
  ["Cc1nn(-c2nc3ccc(Cl)cc3s2)c(C)c1/N=N/c1ccccc1C(=O)O", "MIC", "µM", 487],
  ["CC1=NN(c2nc3ccc(Cl)cc3s2)C(=O)/C1=N/Nc1ccc(Cl)cc1", "MIC", "µM", 62],
  ["Cc1ccc(/N=N/c2c(C)nn(-c3nc4ccc(Cl)cc4s3)c2C)cc1", "MIC", "µM", 65.6],
  ["Cc1nn(-c2nc3ccc(Cl)cc3s2)c(C)c1/N=N/c1ccccc1O", "MIC", "µM", 522]
]}

(a) CC1=NN(c2nc3ccc(Cl)cc3s2)C(=O)/C1=N/Nc1ccccc1Cl
(b) Cc1ccccc1/N=N/c1c(C)nn(-c2nc3ccc(Cl)cc3s2)c1C
(c) NNc1nc2ccc(Cl)cc2s1
Give the ascending ranking of the items by reported MIC. Respond with the label ranking, as requested.
a, b, c

(P) CC1=NN(c2nc3ccc(Cl)cc3s2)C(=O)/C1=N/Nc1ccc(F)cc1
(Q) CC1=NN(c2nc3ccc(Cl)cc3s2)C(=O)/C1=N/Nc1ccc(C(=O)O)cc1
Which value of MIC is numerically greater: that of P or that of Q ? API: response body contains the label of the selected item.
Q

(1) Cc1nn(-c2nc3ccc(Cl)cc3s2)c(C)c1/N=N/c1ccc(Br)cc1
(2) COc1ccc(N/N=C2/C(=O)N(c3nc4ccc(Cl)cc4s3)N=C2C)cc1
(3) Cc1nn(-c2nc3ccc(Cl)cc3s2)c(C)c1/N=N/c1ccc(F)cc1
# rank by MIC, ascending (min first) # list labels per requested ordering
3, 1, 2
(3: 32.5 µM, 1: 112 µM, 2: 251 µM)

(1) CC1=NN(c2nc3ccc(Cl)cc3s2)C(=O)/C1=N/Nc1ccc(Br)cc1
(2) CC1=NN(c2nc3ccc(Cl)cc3s2)C(=O)/C1=N/Nc1ccccc1C
Task for the reader: decide whether 1 or 2 has the larger MIC. // respond with label for picked entry
2
(2: 261 µM, 1: 112 µM)

* * *

- Tested on: Aspergillus niger
- TEST PROTOCOL: Antimicrobial activity against Aspergillus niger ATCC 9029 by serial plate dilution method
- Type: functional
ASSAY READOUT: MIC (µM)

Reference set, count: 4
{"columns": ["SMI", "UNIT TEXT", "MIC"],
 "data": [
  ["Cc1nn(-c2nc3ccc(Cl)cc3s2)c(C)c1/N=N/c1ccccc1C(=O)O", "µM", 122],
  ["CC1=NN(c2nc3ccc(Cl)cc3s2)C(=O)/C1=N/Nc1ccc(C(=O)O)cc1", "µM", 484],
  ["Cc1nn(-c2nc3ccc(Cl)cc3s2)c(C)c1/N=N/c1ccccc1O", "µM", 522],
  ["COc1ccc(N/N=C2/C(=O)N(c3nc4ccc(Cl)cc4s3)N=C2C)cc1", "µM", 501]
]}

(I) CC1=NN(c2nc3ccc(Cl)cc3s2)C(=O)/C1=N/Nc1ccc(C)cc1
(II) Cc1nn(-c2nc3ccc(Cl)cc3s2)c(C)c1/N=N/c1ccc(Br)cc1
Field: lower recorded MIC (choose I or II ) Give the chosen item's label as your response.
II

(1) CC1=NN(c2nc3ccc(Cl)cc3s2)C(=O)/C1=N/Nc1ccc(Br)cc1
(2) CC1=NN(c2nc3ccc(Cl)cc3s2)C(=O)/C1=N/Nc1ccccc1C(=O)O
Compare reported MIC values for 1 and 2 . Which is lower? Selection: enter the item's label.
1

* * *

- Tested on: Candida albicans
- TEST PROTOCOL: Antimicrobial activity against Candida albicans ATCC 90028 by serial plate dilution method
- Format: functional
ASSAY READOUT: MIC (µM)

(A) Cc1nn(-c2nc3ccc(Cl)cc3s2)c(C)c1/N=N/c1ccccc1O
(B) CC1=NN(c2nc3ccc(Cl)cc3s2)C(=O)/C1=N/Nc1ccccc1C(=O)O
(C) CC1=NN(c2nc3ccc(Cl)cc3s2)C(=O)/C1=N/Nc1ccc(C)cc1
Rank by MIC (largest to smallest). // list labels; follow requested order
C, A, B
(C: 522 µM, A: 261 µM, B: 121 µM)

* * *

- System: Candida albicans
- TEST PROTOCOL: Antimicrobial activity against Candida albicans ATCC 90028 by serial plate dilution method
- Format: functional
ASSAY READOUT: MIC (µM)

Below, each entry is followed by its recorded MIC result.
{"columns": ["SMI", "SYSTEM TESTED", "MIC (µM)"],
 "data": [
  ["CC1=NN(c2nc3ccc(Cl)cc3s2)C(=O)/C1=N/Nc1ccc(F)cc1", "Candida albicans", 64.6],
  ["Cc1ccccc1/N=N/c1c(C)nn(-c2nc3ccc(Cl)cc3s2)c1C", "Candida albicans", 262],
  ["NNc1nc2ccc(Cl)cc2s1", "Candida albicans", 501],
  ["COc1ccc(/N=N/c2c(C)nn(-c3nc4ccc(Cl)cc4s3)c2C)cc1", "Candida albicans", 63]
]}

(1) CC1=NN(c2nc3ccc(Cl)cc3s2)C(=O)/C1=N/Nc1ccc(C(=O)O)cc1
(2) Cc1nn(-c2nc3ccc(Cl)cc3s2)c(C)c1/N=N/c1ccc(Br)cc1
Out of 1 and 2 , name the one with the higher MIC. Your choice should be expressed through its label.
1

* * *

- System: Candida albicans
- TEST PROTOCOL: Antimicrobial activity against Candida albicans ATCC 90028 by serial plate dilution method
- Type: functional
ASSAY READOUT: MIC (µM)

Some solved cases for reference:
{"columns": ["COMPOUND", "ASSAY READOUT", "UNIT TEXT", "TEST VALUE"],
 "data": [
  ["CC1=NN(c2nc3ccc(Cl)cc3s2)C(=O)/C1=N/Nc1ccccc1O", "MIC", "µM", 260],
  ["Cc1nn(-c2nc3ccc(Cl)cc3s2)c(C)c1/N=N/c1ccc(F)cc1", "MIC", "µM", 260],
  ["COc1ccc(N/N=C2/C(=O)N(c3nc4ccc(Cl)cc4s3)N=C2C)cc1", "MIC", "µM", 251]
]}

(a) CC1=NN(c2nc3ccc(Cl)cc3s2)C(=O)/C1=N/Nc1ccccc1C
(b) CC1=NN(c2nc3ccc(Cl)cc3s2)C(=O)/C1=N/Nc1ccc(Br)cc1
Between the two listed entries a and b , which has its MIC at the higher number? Reply briefly: the label of your chosen item.
a
(a: 522 µM, b: 112 µM)

* * *

- Test system: Aspergillus niger
- TEST PROTOCOL: Antimicrobial activity against Aspergillus niger ATCC 9029 by serial plate dilution method
- Assay type: functional
ASSAY READOUT: MIC (µM)

Past entries and their recorded results:
{"columns": ["MOLECULE", "MIC, µM"],
 "data": [
  ["Cc1nn(-c2nc3ccc(Cl)cc3s2)c(C)c1/N=N/c1ccc(Cl)cc1", 31.2],
  ["Cc1nn(-c2nc3ccc(Cl)cc3s2)c(C)c1/N=N/c1ccccc1Cl", 125],
  ["Cc1ccccc1/N=N/c1c(C)nn(-c2nc3ccc(Cl)cc3s2)c1C", 525],
  ["CC1=NN(c2nc3ccc(Cl)cc3s2)C(=O)/C1=N/Nc1ccc(F)cc1", 129],
  ["CC(=O)N1CCN(c2ccc(OCC3COC(Cn4ccnc4)(c4ccc(Cl)cc4Cl)O3)cc2)CC1 (centres undefined)", 11.8]
]}

(1) CC1=NN(c2nc3ccc(Cl)cc3s2)C(=O)/C1=N/Nc1ccc(Cl)cc1
(2) CC1=NN(c2nc3ccc(Cl)cc3s2)C(=O)/C1=N/Nc1ccccc1O
(3) NNc1nc2ccc(Cl)cc2s1
(4) Cc1nn(-c2nc3ccc(Cl)cc3s2)c(C)c1/N=N/c1ccc(C(=O)O)cc1
Sort these molecules on MIC so the largest reading comes first. Answer format: the labels, in the requested order.
3, 2, 4, 1
